System: B6C3F1 mice, B16 melanoma ip, median survival T/C
Assay: NCI In Vivo Anticancer Drug Screen. Data for tumor model B16 Melanoma (intraperitoneal) in B6C3F1 mice
Details: endpoint: median survival time; dose: 200.0 mg/kg/injection; schedule: Q01DX009 (ip); vehicle: saline with Tween-80; higher = longer survival
Toxic doses and inconclusive results are not listed.
Recorded measurements of T/C, one per entry
assay-endpoint: T/C

molecule=N#CCS(=O)(=O)c1cccc[n+]1[O-] value_reported="121 % of control"
molecule=COc1ccc(O)cc1 value_reported="105 % of control"
molecule=CC1(C)CC1(Br)Br value_reported="92 % of control"
molecule=O=C(O)COc1ccc(-c2ccc(Br)cc2)cc1 value_reported="96 % of control"
molecule="CC(C)(C)OC(=O)NC(CO)C(=O)O (stereo unspecified)" value_reported="90 % of control"
molecule=C/C=C/C=C1/OC(C)=C(C(C)=O)C1=O value_reported="109 % of control"
molecule=Brc1ccc(C[N+]23CN4CN(CN(C4)C2)C3)cc1 value_reported="112 % of control"
molecule=C(C#CCN1CCOCC1)#CCN1CCOCC1 value_reported="98 % of control"
molecule="CC(C)(C)OC(=O)NCCCCC(NC(=O)OC(C)(C)C)C(=O)O (stereo unspecified)" value_reported="95 % of control"
molecule=N#CCCCCCCCCCCC(=O)O value_reported="96 % of control"
molecule=C=C(C)C(=NC(C)(C)C)Nc1ccccc1 value_reported="114 % of control"

====

Test system: B6C3F1 mice, B16 melanoma ip, median survival T/C
Assay: NCI In Vivo Anticancer Drug Screen. Data for tumor model B16 Melanoma (intraperitoneal) in B6C3F1 mice
Details: endpoint: median survival time; dose: 100.0 mg/kg/injection; schedule: Q01DX009 (ip); vehicle: Klucel (hydroxypropylcellulose) (HPC)
Toxic doses and inconclusive results are not listed. How the source made its calls: active means survival T/C of 150% or more; inactive means T/C below 125% in these data. Where a SMILES comes first, the peptide text is derived from it. The star is where a group is joined. Cbz = O=C(OCc1ccccc1)*
Labels: active, inactive

compound="CC(=O)OC1=NC(C)c2c1cc(OC(C)=O)[nH]c2=O (stereo unspecified)" target="B6C3F1 mice, B16 melanoma ip, median survival T/C" group_label=inactive
compound="CC(O)C(NC(=O)CNC(=O)CNC(=O)OCc1ccccc1)C(=O)O (stereo unspecified) (HELM PEPTIDE1{[O=C(OCc1ccccc1)[*:2]].G.G.[CC(O)C(N[*:1])C(=O)O]}$$$$V2.0)" target="B6C3F1 mice, B16 melanoma ip, median survival T/C" group_label=inactive
compound="ClC1C(Cl)C(Cl)C(Cl)C(Cl)C1Cl (stereo unspecified)" target="B6C3F1 mice, B16 melanoma ip, median survival T/C" group_label=inactive
compound="Oc1c(Cl)cc(Cl)cc1C1N2CCCCC2C2c3cccn3-c3ccccc3N21 (stereo unspecified)" target="B6C3F1 mice, B16 melanoma ip, median survival T/C" group_label=inactive
compound=O=C1N[C@H]2[C@H](CS[C@H]2CCCCC(=O)N(CCP(c2ccccc2)c2ccccc2)CCP(c2ccccc2)c2ccccc2)N1 target="B6C3F1 mice, B16 melanoma ip, median survival T/C" group_label=inactive
compound="CC(NC(=O)OCc1ccccc1)C(=O)NC(CC(N)=O)C(=O)O (stereo not drawn) (Cbz-Ala-Asn-OH; configuration not given here)" target="B6C3F1 mice, B16 melanoma ip, median survival T/C" group_label=inactive
compound="Clc1ccc(C2SC=Cc3ccccc32)cc1 (stereo unspecified)" target="B6C3F1 mice, B16 melanoma ip, median survival T/C" group_label=inactive
compound="CCC1OCC(C(Cl)CCl)O1 (stereo unspecified)" target="B6C3F1 mice, B16 melanoma ip, median survival T/C" group_label=inactive
compound="CCCCC(NC(=O)CN)C(=O)O (stereo unspecified)" target="B6C3F1 mice, B16 melanoma ip, median survival T/C" group_label=inactive
compound=CCCCCNc1ncnc2c(C)[nH]nc12 target="B6C3F1 mice, B16 melanoma ip, median survival T/C" group_label=inactive
compound=COc1ccc2[nH]c3ccc4cc[n+](CCN5CCC(C6CCN(CC[n+]7ccc8ccc9[nH]c%10ccc(OC)cc%10c9c8c7)CC6)CC5)cc4c3c2c1 target="B6C3F1 mice, B16 melanoma ip, median survival T/C" group_label=active

Recorded values, source PubChem BioAssay AID200.
